System: Streptococcus gordonii
Experiment: MIC microdilution assay
Type: cell-based
Settings: Streptococcus gordonii; S. gordonii; agent alone; read-out: MIC of the antimicrobial agents alone
Counter-ions that a name gives are not always drawn.

- molecule: "[H]/N=C(\\N/C(=N/[H])NCCCCCCNC(=N)NC(=N)Nc1ccc(Cl)cc1)Nc1ccc(Cl)cc1 [CHX, chlorhexidine gluconate]"
  MIC [µg/mL]: 5
- molecule: "CN(C)[C@@H]1C(O)=C(C(N)=O)C(=O)[C@@]2(O)C(O)=C3C(=O)c4c(O)cccc4[C@@](C)(O)[C@H]3C[C@@H]12 [Tet, tetracycline HCl]"
  MIC [µg/mL]: 0.31
- molecule: "C[C@H]1c2cccc(O)c2C(=O)C2=C(O)[C@]3(O)C(=O)C(C(N)=O)=C(O)[C@@H](N(C)C)[C@@H]3[C@@H](O)[C@@H]21 [Dox, doxycycline HCl]"
  MIC [µg/mL]: 0.31
- molecule: "COc1ccc2cc3[n+](cc2c1OC)CCc1cc2c(cc1-3)OCO2"
  MIC [µg/mL]: 250

* * *

Entries annotated with measured MIC
Tested on: Porphymonas gingivalis
Experiment: MIC microdilution assay
Format: cell-based
Conditions: Porphyromonas gingivalis; P. gingivalis; agent alone; read-out: MIC of the antimicrobial agents alone
Counter-ions that a name gives are not always drawn.

- molecule: "COc1ccc2cc3[n+](cc2c1OC)CCc1cc2c(cc1-3)OCO2 [Berberine]"
  subject of test: "Porphymonas gingivalis"
  MIC / µg/mL: 23.4
- molecule: "[H]/N=C(\\N/C(=N/[H])NCCCCCCNC(=N)NC(=N)Nc1ccc(Cl)cc1)Nc1ccc(Cl)cc1 [CHX, chlorhexidine gluconate]"
  subject of test: "Porphymonas gingivalis"
  MIC / µg/mL: 1.25
- molecule: "CN(C)[C@@H]1C(O)=C(C(N)=O)C(=O)[C@@]2(O)C(O)=C3C(=O)c4c(O)cccc4[C@@](C)(O)[C@H]3C[C@@H]12 [Tet, tetracycline HCl]"
  subject of test: "Porphymonas gingivalis"
  MIC / µg/mL: 0.08
- molecule: "C[C@H]1c2cccc(O)c2C(=O)C2=C(O)[C@]3(O)C(=O)C(C(N)=O)=C(O)[C@@H](N(C)C)[C@@H]3[C@@H](O)[C@@H]21 [Dox, doxycycline HCl]"
  subject of test: "Porphymonas gingivalis"
  MIC / µg/mL: 0.08

* * *

Test system: Escherichia coli
Test: Combination determination (FIC, MIC in combination)
Type: cell-based
Conditions: E. coli; berberine (B-CG) combined with CHX, Tet or Dox; MIC of the named agent in the combination
Experimental: The alkaloids were tested in pair-wise combinations (fractional inhibitory concentrations, FIC) against all the bacteria to determine whether interactions were antagonistic (FIC>1), additive (0.5<FIC<1), or synergistic (FIC<0.5). The FIC was calculated by the following: (MIC Acombination/MIC Aalone)+(MIC Bcombination/MIC Balone). Where A represents compound 1 and B represents compound 2. […] In the case of A. actinomycetemcomitans and P. aeruginosa, CHX was used at 0.78 to 50 μg ml^−1. […]
Where a name gives a salt, the structure may show the parent alone.
attribute measured: MIC of the antimicrobial agents in combination (µg/mL)

- compound: "COc1ccc2cc3[n+](cc2c1OC)CCc1cc2c(cc1-3)OCO2"
  result number: 125
- compound: "CN(C)[C@@H]1C(O)=C(C(N)=O)C(=O)[C@@]2(O)C(O)=C3C(=O)c4c(O)cccc4[C@@](C)(O)[C@H]3C[C@@H]12 [Tet, tetracycline HCl]"
  result number: 1.53
- compound: "C[C@H]1c2cccc(O)c2C(=O)C2=C(O)[C@]3(O)C(=O)C(C(N)=O)=C(O)[C@@H](N(C)C)[C@@H]3[C@@H](O)[C@@H]21 [Dox, doxycycline HCl]"
  result number: 0.77
- compound: "[H]/N=C(\\N/C(=N/[H])NCCCCCCNC(=N)NC(=N)Nc1ccc(Cl)cc1)Nc1ccc(Cl)cc1 [CHX, chlorhexidine gluconate]"
  result number: 0.63

Reference source: patent US20070098649A1
